target: T1, …-Biotin; experiment: Octet (BLI), fixed reagent concentration
T1 sequence (peptide, C-terminal Biotin): SAKLDEESILKQ
Primed or numbered codes have the meaning given here. Where no end group is shown, it is not given here. [ ]: non-standard residue; d: D form. pS = N[C@@H](COP(=O)(O)O)C(=O)O; Biotin′ = not defined here
experimental readout: Octet binding assay response

# binder, reported result
data = [
    ("PM19 (Human/RBM15) (other) MAPVASASPKLCLAWQGMLLLKNSNFPSNMHLLQGDLQVASSLLVEGSTGGKVAQLKITQRLRLDQPKLDEVTRRIKVAGPNGYAILLAVPGSSDSRSSSSSAASDTATSTQRPLRNLVSYLKQKQAAGVISLPVGGNKDKENTGVLHAFPPCEFSQQFLDSPAKALAKSEEDYLVMIIVRGFGFQI", 0.1),
    ("PM18 (Human/MINT) (other) MVDMVQLLKKYPIVWQGLLALKNDTAAVQLHFVSGNNVLAHRSLPLSEGGPPLRIAQRMRLEATQLEGVARRMTVETDYCLLLALPCGRDQEDVVSQTESLKAAFITYLQAKQAAGIINVPNPGSNQPAYVLQIFPPCEFSESHLSRLAPDLLASISNISPHLMIVIASV", 0.9),
    ("PM03 (Human/14-3-3 protein eta) (other) MGDREQLLQRARLAEQAERYDDMASAMKAVTELNEPLSNEDRNLLSVAYKNVVGARRSSWRVISSIEQKTMADGNEKKLEKVKAYREKIEKELETVCNDVLSLLDKFLIKNCNDFQYESKVFYLKMKGDYYRYLAEVASGEKKNSVVEASEAAYKEAFEISKEQMQPTHPIRLGLALNFSVFYYEIQNAPEQACLLAKQAFDDAIAELDTLNEDSYKDSTLIMQLLRDNLTLWTSDQQDEEAGEGN", 0.3),
    ("PM20 (Human/RB15B) (other) MQLGWNGLLVLKNSCFPTSMHILEGDQGVISSLLKDHTSGSKLTQLKIAQRLRLDQPKLDEVTRRIKQGSPNGYAVLLATQATPSGLGTEGMPTVEPGLQRRLLRNLVSYLKQKQAAGVISLPVGGSKGRDGTGMLYAFPPCDFSQQYLQSALRTLGKLEEEHMVIVIVRDTA", 0.2),
    ("PM01 (Human/14-3-3 protein epsilon) (other) MDDREDLVYQAKLAEQAERYDEMVESMKKVAGMDVELTVEERNLLSVAYKNVIGARRASWRIISSIEQKEENKGGEDKLKMIREYRQMVETELKLICCDILDVLDKHLIPAANTGESKVFYYKMKGDYHRYLAEFATGNDRKEAAENSLVAYKAASDIAMTELPPTHPIRLGLALNFSVFYYEILNSPDRACRLAKAAFDDAIAELDTLSEESYKDSTLIMQLLRDNLTLWTSDMQGDGEEQNKEALQDVEDENQ", 0.2),
    ("PM05 (Human/14-3-3 protein beta/alpha) (other) MTMDKSELVQKAKLAEQAERYDDMAAAMKAVTEQGHELSNEERNLLSVAYKNVVGARRSSWRVISSIEQKTERNEKKQQMGKEYREKIEAELQDICNDVLELLDKYLIPNATQPESKVFYLKMKGDYFRYLSEVASGDNKQTTVSNSQQAYQEAFEISKKEMQPTHPIRLGLALNFSVFYYEILNSPEKACSLAKTAFDEAIAELDTLNEESYKDSTLIMQLLRDNLTLWTSENQGDEGDAGEGEN", 0.2),
    ("PM02 (Human/14-3-3 protein theta) (other) MEKTELIQKAKLAEQAERYDDMATCMKAVTEQGAELSNEERNLLSVAYKNVVGGRRSAWRVISSIEQKTDTSDKKLQLIKDYREKVESELRSICTTVLELLDKYLIANATNPESKVFYLKMKGDYFRYLAEVACGDDRKQTIDNSQGAYQEAFDISKKEMQPTHPIRLGLALNFSVFYYEILNNPELACTLAKTAFDEAIAELDTLNEDSYKDSTLIMQLLRDNLTLWTSDSAGEECDAAEGAEN", 0.3),
    ("PM21 (Human/PHF3) (other) MTFLARLNFIWKGFINMPSVAKFVTKAYPVSGSPEYLTEDLPDSIQVGGRISPQTVWDYVEKIKASGTKEICVVRFTPVTEEDQISYTLLFAYFSSRKRYGVAANNMKQVKDMYLIPLGATDKIPHPLVPFDGPGLELHRPNLLLGLIIRQKL", 0.1),
    ("PM22 (Schizosaccharomyces pombe/FCP1) (other) MKQKVLKGCRLLFSGVIPLGVDVLSSDIAKWAMSFGAEVVLDFSVPPTHLIAAKIRTEKVKKAVSMGNIKVVKLNWLTESLSQWKRLPESDYLL", 0.2),
    ("PM23 (Human/Scp1) (other) MAFEELRVQAENARLDMHFKLKEDHEKIQHLQEEYKKEVNDKENQVSLLLIQRTEKENKMKDLTFLLEESRDKVNQLEDKTKLQDENVKELNKKKDHLTSELEDTKMSLQRSMNTQKALEEDLQIATKTIYQLTEEKEAQMEEFNKAKTDHSFMVTELKATTCTLEELLRTEQQRLVKNED", 0.1),
    ("PM13 (Saccharomyces cerevisiae/FHA1) (other) MENITQPTQQSTQATQRFLIEKFSQEQIGENIVCRVICTTGQIPIRDLSADISQVLKEKRSIKKVWTFGRNPACDYHLGNISRLSNKHFQILLGEDGNLLLNDISTNGTWLNGQKVEKNSNQLLSQGDEITVGVGVESDILSLVIFINDKFKQCLEQNKVDRIRSNLKNTSKIASPGLTSSTASSMVANKTGIFKDFSIIDEVVGQGAFATVKKAIERTTGKTFAVKIISKRKVIGNMDGVTRELEVLQKLNHPRIVRLKGFYEDTESYYMVMEFVSGG", 0.2),
]

Numbers sourced from patent US20250147035A1.
